Provenance of the data: PubChem BioAssay AID1259418

# assay name: inhibitors of Toxoplasma growth in IFN-γ-primed HeLa – cell-based, ME49Luc, luciferase, 72 h, dose response (AID 1259418)
# stated conditions: T. gondii ME49Luc in IFN-y HeLa, stronger effect = lower value, -100% = high-dose IFN-γ control wells; at 19.5 µM unless noted
About 840 (25%) of roughly 3,400 compounds were called active. About 11% were inconclusive and are not listed. Not all results are given here. Entries with a potency or affinity are not part of this list.

molecule | max activity
Cc1c(-c2n[nH]c(=S)n2-c2ccccc2)sc2nc3n(c(=O)c12)CCC3 | -9.68% [at 0.16 µM] (inactive)
Cc1nc(OCC(=O)Nc2cccc(Cl)c2)c2ccccc2n1 | -6.84% [at 0.35 µM] (inactive)
COc1ccc(NC(=O)Nc2ccc(-c3nc(-c4cccc(Br)c4)co3)cc2)cc1OC | 8.18% [at 0.35 µM] (inactive)
CCc1c(C)sc2c1CCN(Cc1nc(-c3cc(C)ccc3C)oc1C)C2c1ccccc1 (stereo unspecified) | 12.6% [at 5 µM] (inactive)
COc1ccc(-c2nc3c(s2)CN(C(=O)Nc2ccc(C)cc2Cl)CC3)cc1 | 78.4% (inactive)
Cc1ccc2c(c1)cc(S(=O)(=O)c1ccccc1)c(=O)n2CC(=O)NCc1ccc(F)cc1 | 3.98% [at 10 µM] (inactive)
CC(=O)N1CCC(N(C)Cc2cc(C(C)(C)C)n[nH]2)CC1 | 35.9% (inactive)
Cc1ccc(-c2nc(Cn3nnc(-c4nc(-c5ccc(C)c(C)c5)no4)c3C)c(C)o2)cc1 | -11% [at 2.6 µM] (inactive)
O=C(CC1N=C2c3ccccc3N=C(SCc3cccc(F)c3)N2C1=O)NCc1cccs1 (stereo unspecified) | -23.9% [at 5 µM] (inactive)
O=C(CCC1Nc2c3ccccc3nc(=S)n2C1=O)NCc1ccc(F)cc1 (stereo unspecified) | 21.3% (inactive)
Cc1ccc(S(=O)(=O)N2[C@@H]3CNC[C@H]2C3c2ccc(/C=C/c3ccccc3)cc2)cc1 (stereo partly specified) | 32.9% [at 10 µM] (inactive)
O=C(CCc1ccc2nc(-c3ccccc3)[nH]c2c1)N1CCC(N2CCCCC2)CC1 | 57.7% (inactive)
COc1ccccc1-c1nc(CN2CCc3c(sc4c3CCCC4)C2c2ccccc2)c(C)o1 (stereo unspecified) | 10.8% [at 0.038 µM] (inactive)
O=C1CCc2cc(NC(=O)C3CC3)ccc2N1 | -5.5% [at 5 µM] (inactive)
C/C=C/c1ccc(C2[C@H]3CNC[C@@H]2N3Cc2ccc3c(c2)OCO3)cc1 (stereo partly specified) | 24% (inactive)
O=C(NCc1ccc(F)cc1)Nc1ccc(-c2nc(-c3ccccc3)co2)cc1 | 16.3% [at 1.35 µM] (inactive)
Cc1nc(C)c(C(=O)N2CCCC2c2nc(-c3ccc(F)cc3F)no2)s1 (stereo unspecified) | 25.6% [at 10 µM] (inactive)
COCC(=O)N1CCC2(CC1)CC1(CCN(CC(C)C)CC1)C(=O)N2C | 34.4% (inactive)
CC(C)c1cc(C2CCCN2C(=O)c2cc(C(F)(F)F)nn2C)on1 (stereo unspecified) | 9.25% [at 0.35 µM] (inactive)
COc1ccc(-c2nc(Cn3nnc(-c4nc(-c5cccc(F)c5)no4)c3C)c(C)o2)cc1 | 5.24% [at 10 µM] (inactive)
COc1ccc(-c2nc(NCCc3cc(OC)ccc3OC)c3ccccc3n2)cc1 | 10.1% (inactive)
